Recorded speed of sound, one value per entry.
Conditions: 303.15 K; 101.33 kPa; Liquid; Linear variable-path acoustic interferometer

COMPOUND	speed of sound [m/s]
COC(=O)c1ccccc1 [methyl benzoate]	1399.4
CCOC(=O)c1ccccc1 [ethyl benzoate]	1345.4
CCCCO	1228.4
CCCCCO	1252.4
CCCO	1189.2

====

Conditions: 303.15 K; 101.33 kPa; Liquid; Capillary tube (Ostwald / Ubbelohde) method
READOUT_NAME: viscosity (mPa·s)

MOLECULE	READOUT_NAME	RESULT_NUMBER
CCOC(=O)c1ccccc1 [ethyl benzoate]	viscosity	1.749
CCCO	viscosity	1.61
COC(=O)c1ccccc1 [methyl benzoate]	viscosity	1.67
CCCCCO	viscosity	3.012
CCCCO	viscosity	2.054

====

Form field: mass density (one value per entry).
Conditions: 303.15 K; 101.33 kPa; Liquid; Pycnometric method
Numbers after ± are expanded uncertainties.
READOUT_NAME: mass density

MOLECULE	READOUT_NAME	RESULT
CCCCO	mass density	804 ± 4 kg/m3
CCCCCO	mass density	810 ± 4 kg/m3
COC(=O)c1ccccc1 [methyl benzoate]	mass density	1077 ± 4 kg/m3
CCCO	mass density	798 ± 4 kg/m3
CCOC(=O)c1ccccc1 [ethyl benzoate]	mass density	1042 ± 4 kg/m3
